System: U-118-MG (Low Grade Glioma)
Test: combination Emax (second highest fraction inhibited in the dose matrix, 72 h); higher = more inhibition; extreme values may be limits of the assay
Recorded combination Emax, one value per entry.
Answer as a number with no unit attached.

CC1(C)CCC(CN2CCN(c3ccc(C(=O)NS(=O)(=O)c4ccc(NCC5CCOCC5)c([N+](=O)[O-])c4)c(Oc4cnc5[nH]ccc5c4)c3)CC2)=C(c2ccc(Cl)cc2)C1 [Venetoclax] + C[C@@H]1COCCN1C2=NC(=NC(=C2)C3(CC3)[S@](=N)(=O)C)C4=C5C=CNC5=NC=C4 [AZD6738] (first compound max 1 µM, 7x7, partner max 10 µM) | 0.648
CN(C)CCCOc1ccc(-c2ccc3ncc4c(c3c2)n(C2CCOCC2)c(=O)n4C)cn1 [AZD0156] + O=C(c1cc(Cc2n[nH]c(=O)c3ccccc23)ccc1F)N1CCN(C(=O)C2CC2)CC1 [Olaparib] (first compound max 3 µM, partner max 3 µM) | 0.304
COc1nnc2ccc(N3CCC(c4ccc(OCCN5CCN(C)C(=O)[C@H]5C)cc4)CC3)nn12 [AZD5153] + CN(CC[C@H](CSC1=CC=CC=C1)NC2=C(C=C(C=C2)S(=O)(=O)NC(=O)C3=CC=C(C=C3)N4CCC(CC4)[C@H](C5=CC=CC=C5C6=CC=C(C=C6)Cl)O)S(=O)(=O)C(F)(F)F)CCO [AZD4320] (first compound max 1 µM, 7x7, partner max 1 µM) | 0.417
CC1(C)CCC(CN2CCN(c3ccc(C(=O)NS(=O)(=O)c4ccc(NCC5CCOCC5)c([N+](=O)[O-])c4)c(Oc4cnc5[nH]ccc5c4)c3)CC2)=C(c2ccc(Cl)cc2)C1 [Venetoclax] + CCN(CCO)CCCOc1ccc2c(Nc3cc(CC(=O)Nc4cccc(F)c4)[nH]n3)ncnc2c1 [AZD2811] (first compound max 1 µM, 7x7, partner max 1 µM) | 0.357
COc1cc2c(cc1OCCCCCOc1cc3c(cc1OC)C(=O)N1C=C(C)C[C@H]1C=N3)N=C[C@@H]1CC(C)=CN1C2=O [SG3199] + O=C(c1cc(Cc2n[nH]c(=O)c3ccccc23)ccc1F)N1CCN(C(=O)C2CC2)CC1 [Olaparib] (first compound max 0.001 µM, 7x7, partner max 10 µM) | 0.305
Cc1cc2ncnn2cc1Nc1ncc2c(n1)n(C1CCOCC1)c(=O)n2C [AZD7648] + O=C(c1cc(Cc2n[nH]c(=O)c3ccccc23)ccc1F)N1CCN(C(=O)C2CC2)CC1 [Olaparib] (first compound max 10 µM, 7x7, partner max 10 µM) | 0.394
CC(=O)c1c(C)c2cnc(Nc3ccc(N4CCNCC4)cn3)nc2n(C2CCCC2)c1=O [Palbociclib] + Cn1cnc2c(F)c(Nc3ccc(Br)cc3Cl)c(C(=O)NOCCO)cc21 [Selumetinib] (first compound max 10 µM, 7x7, partner max 10 µM) | 0.296
Cn1cnc2c(F)c(Nc3ccc(Br)cc3Cl)c(C(=O)NOCCO)cc21 [Selumetinib] + CCN(CCO)CCCOc1ccc2c(Nc3cc(CC(=O)Nc4cccc(F)c4)[nH]n3)ncnc2c1 [AZD2811] (first compound max 10 µM, 7x7, partner max 1 µM) | 0.287

If you can, please state the reported combination Emax value of CC1(C)CCC(CN2CCN(c3ccc(C(=O)NS(=O)(=O)c4ccc(NCC5CCOCC5)c([N+](=O)[O-])c4)c(Oc4cnc5[nH]ccc5c4)c3)CC2)=C(c2ccc(Cl)cc2)C1 [Venetoclax] + Cc1cc2ncnn2cc1Nc1ncc2c(n1)n(C1CCOCC1)c(=O)n2C [AZD7648] (first compound max 1 µM, 7x7, partner max 10 µM) .
0.412

If you can, please state the reported combination Emax value of CN(CCO)CC[C@H](CSc1ccccc1)Nc1ccc(S(=O)(=O)NC(=O)c2ccc(N3CCC([C@@H](O)c4ccccc4-c4ccc(Cl)cc4)CC3)cc2)cc1S(=O)(=O)C(F)(F)F [AZD4320] + C[C@@H](Nc1cc(F)cc(F)c1)c1cc(C(=O)N(C)C)cc2c(=O)cc(N3CCOCC3)oc12 [AZD8186] (first compound max 1 µM, 7x7, partner max 3 µM) .
0.812

If you can, please state the reported combination Emax value of Cc1c2c(nn1C)CSCc1cc(n(C)n1)CSc1cc(c3ccccc3c1)OCCCc1c(C(=O)O)n(C)c3c-2c(Cl)ccc13 [AZD5991] + CN(C)CCCOc1ccc(-c2ccc3ncc4c(c3c2)n(C2CCOCC2)c(=O)n4C)cn1 [AZD0156] (first compound max 1 µM, 7x7, partner max 1 µM) .
0.27

If you can, please state the reported combination Emax value of COc1cccc2c1C(=O)c1c(O)c3c(c(O)c1C2=O)C[C@@](O)(C(=O)CO)C[C@@H]3O[C@H]1C[C@H](N)[C@H](O)[C@H](C)O1 [Doxorubicin] + Cc1cc2ncnn2cc1Nc1ncc2c(n1)n(C1CCOCC1)c(=O)n2C [AZD7648] (first compound max 1 µM, 7x7, partner max 10 µM) .
0.715

If you can, please state the reported combination Emax value of CS(=O)(=O)CCNCc1ccc(-c2ccc3ncnc(Nc4ccc(OCc5cccc(F)c5)c(Cl)c4)c3c2)o1 [Lapatinib] + C[C@@H](Oc1cc(-c2cnn(C3CCNCC3)c2)cnc1N)c1c(Cl)ccc(F)c1Cl [Crizotinib] (first compound max 10 µM, 7x7, partner max 10 µM) .
0.491

Reference source: the supplement of paper PMC11061612
